# Target Entity: 4-oxalocrotonate tautomerase (4-OT) (Pseudomonas putida)
# Sequence (Q01468 2-63): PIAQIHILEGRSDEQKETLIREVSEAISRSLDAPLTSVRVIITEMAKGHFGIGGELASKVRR
# Procedure Details: biochemical
pIC50: −log10 of the molar value.
Measured Quantity: pIC50

C=O ... > 2.00
